Readout Label: pKi
Just so you know, pKi here is -log10 of the concentration in molar units; reply with that number alone.

Query Cc1cc(C)n2nc(C)c(S(=O)(=O)c3ccccc3)c2n1 on 5-HT6 receptor (Homo sapiens (Human), UniProt P50406); pKi returned: 7.16
